system: CCRIS mutagenicity, Ames/micronucleus/aberration tests; test: CCRIS mutagenicity studies; conditions: Test System: MOUSE LYMPHOMA; Strain/Indicator: L5178Y (TK+/TK-); Metabolic Activation: NONE; Method: SUSPENSION/PLATE
Activity calls are given as the source filed them. How the calls were made is not given here.

smiles	mutagenic call
Nc1ccc(Cl)cc1	active; positive
O=C1NC(=O)C(c2ccccc2)(c2ccccc2)N1	inactive; negative
Cc1cc(-c2ccc(N)c(C)c2)ccc1N	active; positive
O=CCC=O	active; positive
C=CC	inactive; negative
O=c1[nH]c(=O)[nH]c(=O)[nH]1	inactive; negative
O=C1CN(/N=C/c2ccc([N+](=O)[O-])o2)C(=O)N1	active; positive
ClC(Cl)Cl	inactive; negative
CCN(CC)c1cc(NC(C)=O)c(N=Nc2ccc([N+](=O)[O-])cc2)cc1OC	inactive; negative
Cc1ccc(S(=O)(=O)O)cc1C	inactive; negative

* * *

tested on: CCRIS mutagenicity, Ames/micronucleus/aberration tests; assay: CCRIS mutagenicity studies; conditions: Test System: AMES SALMONELLA TYPHIMURIUM; Strain/Indicator: YG1029; Metabolic Activation: NONE; Method: STANDARD PLATE
Active and inactive are the calls of the source. No rule for the calls is given here.
Outcome codes: 1 for active, 0 for inactive

smiles	assay.system	discrete.label
O=[N+]([O-])c1ccc2ccc3ccccc3c2c1	CCRIS mutagenicity, Ames/micronucleus/aberration tests	1
Nc1cccc(N)c1	CCRIS mutagenicity, Ames/micronucleus/aberration tests	0
O=[N+]([O-])c1ccc2ccc3cccc([N+](=O)[O-])c3c2c1	CCRIS mutagenicity, Ames/micronucleus/aberration tests	1
COc1cccc2c1cc([N+](=O)[O-])c1c(C(=O)O)cc3c(c12)OCO3	CCRIS mutagenicity, Ames/micronucleus/aberration tests	1

* * *

tested on: CCRIS mutagenicity, Ames/micronucleus/aberration tests; assay: CCRIS mutagenicity studies; details: Test System: AMES SALMONELLA TYPHIMURIUM; Strain/Indicator: TA1535; Metabolic Activation: RAT, LIVER, S-9, KC500 OR PHENOBARBITAL; Method: LIQUID SUSPENSION
Activity calls are given as the source filed them. The rule behind the calls is not given here.

smiles	mutagenic call
CCCN(CCCC(=O)O)N=O	active; positive
CCCCN(CCC(C)=O)N=O	active; positive
C/[N+]([O-])=N/CO	active; positive
CCCCN(CCCC(=O)O)N=O	active; positive
CCCCN(N=O)/C(N)=N/[N+](=O)[O-]	active; positive

* * *

tested on: CCRIS mutagenicity, Ames/micronucleus/aberration tests; experiment: CCRIS mutagenicity studies; conditions: Test System: AMES SALMONELLA TYPHIMURIUM; Strain/Indicator: TA1538; Metabolic Activation: NONE; Method: PREINCUBATION
Active and inactive are the calls of the source. No rule for the calls is given here.
Labels: TRUE = active, FALSE = inactive

compound	discrete.label
C#C[C@]1(OC(=O)CCCCCC)CC[C@H]2[C@@H]3CCC4=CC(=O)CC[C@@H]4[C@H]3CC[C@@]21C	FALSE
CC(C)(S)C(=O)N[C@@H](CS)C(=O)O	FALSE
CCCCC(CC)CO (stereo not drawn)	FALSE
CCCCCCCOc1ccccc1NC(=O)OCCN1CCCCC1	FALSE
Nc1c(O)cc(Cc2cc(Cl)c(N)c(OS(=O)(=O)O)c2)cc1Cl	FALSE
C1CN(SSN2CCOCC2)CCO1	FALSE
COc1ccccc1[N+](=O)[O-]	TRUE
CN1CCC[C@H]1c1cccnc1	FALSE
CCN(Cc1ccccc1)c1ccccc1	FALSE
CCCCCCCC(=O)CCc1ccc(O)c(OC)c1	FALSE
CCCCCCCCCCCCO	FALSE
C[n+]1c2ccccc2cc2ccccc21	FALSE
Clc1ccc(C(Cl)(Cl)Cl)cc1	FALSE
[O]=[Ce]=[O]	FALSE
CC1CS1 (stereo not drawn)	FALSE
Oc1cc(O)c2ccccc2c1	FALSE
Cc1cc(N)c(S(=O)(=O)O)cc1Cl	FALSE
O=C(O)C(F)(F)C(F)(Cl)C(F)(F)C(F)(Cl)C(F)(F)C(F)(Cl)C(F)(F)Cl (stereo not drawn)	FALSE
O=S1(=O)CCCC1	FALSE
O=C(O)CNC(=O)c1ccc([N+](=O)[O-])cc1	TRUE
O=[N+]([O-])c1ccccc1O	FALSE
[O-][Cl+3]([O-])([O-])O	FALSE
CC(=O)C(C)O (stereo not drawn)	FALSE

* * *

tested on: CCRIS mutagenicity, Ames/micronucleus/aberration tests; assay: CCRIS mutagenicity studies; details: Test System: AMES SALMONELLA TYPHIMURIUM; Strain/Indicator: TA100; Metabolic Activation: RAT, LIVER, S-9, AROCLOR 1254; Method: PREINCUBATION
Active and inactive are the calls of the source. How the calls were made is not given here.
Possible outcomes: active, inactive

compound	assay.system	discrete.label
C#C[C@]1(OC(=O)CCCCCC)CC[C@H]2[C@@H]3CCC4=CC(=O)CC[C@@H]4[C@H]3CC[C@@]21C	CCRIS mutagenicity, Ames/micronucleus/aberration tests	inactive
CCc1cn([C@H]2C[C@H](O)[C@@H](CO)O2)c(=O)[nH]c1=O	CCRIS mutagenicity, Ames/micronucleus/aberration tests	inactive
C=C(C)C(=O)O	CCRIS mutagenicity, Ames/micronucleus/aberration tests	inactive
Clc1ccc(Cl)c(Cl)c1Cl	CCRIS mutagenicity, Ames/micronucleus/aberration tests	inactive
O=NN(CC(=O)O)CC1(O)OCC(O)C(O)C1O (stereo not given)	CCRIS mutagenicity, Ames/micronucleus/aberration tests	inactive
C=CCOCC1CO1 (stereo not given)	CCRIS mutagenicity, Ames/micronucleus/aberration tests	active
Cc1ccsc1	CCRIS mutagenicity, Ames/micronucleus/aberration tests	inactive
Nc1nc2ccc(Cl)cc2[nH]1	CCRIS mutagenicity, Ames/micronucleus/aberration tests	inactive
Cc1nc(N)cc2[nH]c3ccccc3c12	CCRIS mutagenicity, Ames/micronucleus/aberration tests	inactive
CCCCC(CC)COC(=O)c1ccc(N(C)N=O)cc1 (stereo not given)	CCRIS mutagenicity, Ames/micronucleus/aberration tests	inactive
O=c1[nH]c(=O)[nH]c(=O)[nH]1	CCRIS mutagenicity, Ames/micronucleus/aberration tests	inactive
NCC(=O)O	CCRIS mutagenicity, Ames/micronucleus/aberration tests	inactive
O=c1oc2ccc([N+](=O)[O-])c3ccc4cccc1c4c23	CCRIS mutagenicity, Ames/micronucleus/aberration tests	active
CC(=O)C(C)O (stereo not given)	CCRIS mutagenicity, Ames/micronucleus/aberration tests	inactive
N[C@@H]1CCCCN1.[Cl][Pt][Cl]	CCRIS mutagenicity, Ames/micronucleus/aberration tests	active

* * *

System: CCRIS mutagenicity, Ames/micronucleus/aberration tests
Assay: CCRIS mutagenicity studies
Settings: Test System: E.COLI; Strain/Indicator: WP2 UVRA; Metabolic Activation: NONE; Method: PREINCUBATION
Excerpt: The CCRIS database contains chemical records with carcinogenicity, mutagenicity, tumor promotion, and tumor inhibition test results. It was developed by the National Cancer Institute (NCI). Data are derived from studies cited in primary journals, current awareness tools, NCI reports, and other sources. Test results have been reviewed by experts in carcinogenesis and mutagenesis. CCRIS provides historical information from the years 1985 - 2011. It is no longer updated. […]
Activity calls are given as the source filed them. How the calls were made is not given here.
endpoint.label: mutagenic call

smiles	result
O=C(Cl)c1ccc(Cl)cc1Cl	inactive; negative
C[C@@H](O)[C@H]1C(=O)N2C(C(=O)O)=C([C@H]3CCCO3)S[C@H]12	inactive; negative
O=C(O)c1cc(Cl)cc(Cl)c1	inactive; negative

* * *

system: CCRIS mutagenicity, Ames/micronucleus/aberration tests; assay: CCRIS mutagenicity studies; details: Test System: AMES SALMONELLA TYPHIMURIUM; Strain/Indicator: TA98; Metabolic Activation: RAT, LIVER, S-9, PCB; Method: STANDARD PLATE
Activity calls are given as the source filed them. How the calls were made is not given here.
Possible outcomes: YES (active), NO (inactive)

compound	discrete.label
c1ccc2c(c1)Cc1ccccc1-2	NO
Cc1c2ccccc2cc2ccccc12	YES
O=C1O[C@@H]2[C@@H](O)CO[C@]2(O)[C@@]1(O)Cc1c[nH]c2ccccc12	NO
CC(=O)Nc1ccc(S(=O)(=O)c2ccc(NC(C)=O)cc2)cc1	NO
O=C(O)c1ccccc1Nc1cccc(C(F)(F)F)c1	NO
COP(=S)(NC(C)C)Oc1ccccc1C(=O)OC(C)C (configuration not stated)	NO
CC(C(=O)O)c1ccc2c(c1)[nH]c1ccc(Cl)cc12 (configuration not stated)	NO

* * *

system: CCRIS mutagenicity, Ames/micronucleus/aberration tests; experiment: CCRIS mutagenicity studies; conditions: Test System: E. COLI; Strain/Indicator: WP2 UVRA; Metabolic Activation: MOUSE, LIVER, S-9, AROCLOR 1254; Method: PREINCUBATION
The source made the active and inactive calls. No rule for the calls is given here.
Outcome codes: active, inactive

molecule	discrete.label
O=CC1CO1 (centres undefined)	active
CCCCCCCOc1ccccc1NC(=O)OCCN1CCCCC1	inactive
CCCCCCCOc1ccccc1NC(=O)OC(C)CN(CC)CC (centres undefined)	inactive
CC(=O)OC/N=[N+](/C)[O-]	inactive

Origin of the recorded values: PubChem BioAssay AID1259407
